Data credit: PubChem BioAssay AID220

Tested on: CD8F1 mice, subcutaneous mammary adenocarcinoma, T/C%
Assay: NCI In Vivo Anticancer Drug Screen. Data for tumor model Mammary Adenocarcinoma CD8F1 (subcutaneous) in CD8F1
Conditions: endpoint: median tumor weight (est.); dose: 200.0 mg/kg/injection; schedule: Q07DX005 (ip); vehicle: saline; higher = larger tumour
Records with an inconclusive call do not appear.
Form field: T/C (one value per entry).
measurementName: T/C

molecule=c1cc2n(n1)CCN2 systemname="CD8F1 mice, subcutaneous mammary adenocarcinoma, T/C%" result="54 % of control"
molecule=COc1cc(C[C@H]2c3cc(OC)c(OC)cc3CCN2C)c(Oc2cc3c(cc2OC)-c2c(OC)c(OC)cc4c2[C@H](C3)N(C)CC4)cc1OC systemname="CD8F1 mice, subcutaneous mammary adenocarcinoma, T/C%" result="52 % of control"
molecule="NC(C/[N+]([O-])=N/O)C(=O)O (configuration not stated)" systemname="CD8F1 mice, subcutaneous mammary adenocarcinoma, T/C%" result="56 % of control"
molecule=O=C(Nc1ccc(Cl)c(Cl)c1)Nc1c(Oc2ccc(Cl)c(Cl)c2)ccc(Cl)c1S(=O)(=O)O systemname="CD8F1 mice, subcutaneous mammary adenocarcinoma, T/C%" result="114 % of control"
molecule="COC1C(/C=C/C(C)=O)OC2OC(C)(C)OC21 (configuration not stated)" systemname="CD8F1 mice, subcutaneous mammary adenocarcinoma, T/C%" result="101 % of control"
molecule=O=C1CN(CN2CCOCC2)C(=O)CN1CN1CCOCC1 systemname="CD8F1 mice, subcutaneous mammary adenocarcinoma, T/C%" result="100 % of control"
molecule=CC1(C)OC(=O)N(CO)C1=O systemname="CD8F1 mice, subcutaneous mammary adenocarcinoma, T/C%" result="104 % of control"
molecule="OC(CBr)C(O)C(O)C(O)CBr (configuration not stated)" systemname="CD8F1 mice, subcutaneous mammary adenocarcinoma, T/C%" result="28 % of control"
molecule=C(CSC1=NCCN1)CSC1=NCCN1 systemname="CD8F1 mice, subcutaneous mammary adenocarcinoma, T/C%" result="69 % of control"
molecule="CCCC(=O)Nc1ncnc2c1ncn2C1OC2COP(=O)(O)OC2C1OC(=O)CCC (configuration not stated)" systemname="CD8F1 mice, subcutaneous mammary adenocarcinoma, T/C%" result="77 % of control"
molecule="C=CCc1cn(C2CC(O)C(CO)O2)c(=O)[nH]c1=O (configuration not stated)" systemname="CD8F1 mice, subcutaneous mammary adenocarcinoma, T/C%" result="248 % of control"
molecule=Nc1cccc(=O)[nH]1 systemname="CD8F1 mice, subcutaneous mammary adenocarcinoma, T/C%" result="70 % of control"

====

System: CD8F1 mice, subcutaneous mammary adenocarcinoma, T/C%
Experiment: NCI In Vivo Anticancer Drug Screen. Data for tumor model Mammary Adenocarcinoma CD8F1 (subcutaneous) in CD8F1
Settings: endpoint: median tumor weight (est.); dose: 25.0 mg/kg/injection; schedule: Q07DX005 (ip); vehicle: suspension in saline; higher = larger tumour
Results filed as inconclusive are left out.
measurementName: T/C

compound=Nc1ccc2nc3ccc(N)cc3[n+](-c3ccccc3)c2c1 systemname="CD8F1 mice, subcutaneous mammary adenocarcinoma, T/C%" measurementname=T/C result="95 % of control"
compound=O=c1[nH]c2c(ccc3cnccc32)c2c1CCC2 systemname="CD8F1 mice, subcutaneous mammary adenocarcinoma, T/C%" measurementname=T/C result="80 % of control"
compound="COC1C(OC(=O)/C=C/C=C/C=C/C=C/C(=O)O)CCC2(CO2)C1C1(C)OC1CC=C(C)C (stereo not drawn)" systemname="CD8F1 mice, subcutaneous mammary adenocarcinoma, T/C%" measurementname=T/C result="102 % of control"
compound=Nc1ccn([C@@H](C=O)O[C@@H](C=O)CO)c(=O)n1 systemname="CD8F1 mice, subcutaneous mammary adenocarcinoma, T/C%" measurementname=T/C result="122 % of control"
compound="Nc1nc(F)nc2c1ncn2C1OC(COP(=O)(O)O)C(O)C1O (stereo not drawn)" systemname="CD8F1 mice, subcutaneous mammary adenocarcinoma, T/C%" measurementname=T/C result="101 % of control"
compound=c1cc(-c2cc3ccc(C4=NCCN4)cc3[nH]2)ccc1C1=NCCN1 systemname="CD8F1 mice, subcutaneous mammary adenocarcinoma, T/C%" measurementname=T/C result="164 % of control"
compound=C=CC(=O)NCNC(=O)C=C systemname="CD8F1 mice, subcutaneous mammary adenocarcinoma, T/C%" measurementname=T/C result="85 % of control"
compound=CC[n+]1ccc(Nc2ccc(NC(=O)c3ccc(C(=O)Nc4ccc(Nc5cc[n+](CC)c(N)n5)cc4)cc3)cc2)nc1N systemname="CD8F1 mice, subcutaneous mammary adenocarcinoma, T/C%" measurementname=T/C result="77 % of control"
